Reported values: Ki for Cathepsin S (Homo sapiens, UniProt P25774), one per item.

smiles_input: O=C(NC(=O)[C@H](Cc1ccccc1)NC(=O)[C@H](CCc1ccccc1)N/C=C/S(=O)(=O)c1ccccc1)NN1CCOCC1
measure_unit: nM
Ki: 11

smiles_input: CC(C)C[C@H](NC(=O)[C@H](CCc1ccccc1)N/C=C/S(=O)(=O)c1ccccc1)C(=O)NC(=O)NN1CCOCC1
measure_unit: nM
Ki: 5.9

smiles_input: O=C(NC(=O)[C@H](Cc1ccc2ccccc2c1)NC(=O)[C@H](CCc1ccccc1)N/C=C/S(=O)(=O)c1ccc2ccccc2c1)NN1CCOCC1
measure_unit: nM
Ki: 1.8
